Kindly state pIC50 for each of the entries shown.
biological target: HA H5 A/Vietnam/1203/04 (Influenza A virus (A/Vietnam/1203/2004(H5N1))); test: biochemical; details: Competition binding (AlphaLISA), pIC50 H5 A/Vietnam/1203/04
Numbers only, as −log10 of the molar value.

List pIC50 for every entry below, keeping the order given.
1. COc1nnc([C@@H](c2ccccc2)N2CCN(C(=O)c3cc(-c4nc5cc(OC(F)(F)F)ccc5o4)ccn3)CC2)o1 [Example 4]
2. COCC(c1ccccc1)N1CCN(C(=O)c2cccc(-c3nc4ccc(OC)cc4s3)c2)CC1 (stereo not shown) [Example 99]
3. Cc1nc(C(c2ccccc2)N2CCN(C(=O)c3cccc(-c4nc5cc(C(F)(F)F)ccc5o4)c3)CC2)n[nH]1 (stereo not shown) [Example 116]
4. COC(=O)[C@@H](c1ccccc1)N1CCN(C(=O)c2cccc(-c3nc4cc(C(F)(F)F)ccc4o3)c2)[C@@H](CC(N)=O)C1 [Example 58]
5. COC(=O)C(c1ccccc1)C1CCN(C(=O)c2cccc(-c3ccc(OC)cc3)c2)CC1 (stereo not shown) [Example 130]
6. CNC(=O)C(c1ccccc1)N1CCN(C(=O)c2cccc(-c3nc4ccc(OC)cc4s3)c2)CC1 (stereo not shown) [Example 103]
7. COc1ccc2nc(-c3cccc(C(=O)N4CCN(C(c5ccccc5)c5nnn(C)n5)CC4)c3)sc2c1 (stereo not shown) [Example 72]

## Result
1. 7.00
2. 5.90
3. 5.30
4. 6.00
5. 5.00
6. 6.00
7. 5.80

###

test system: H1N1 A/New Caledonia/20/99; assay: microbe, parasite or virus in culture; assay type: cell-based, influenza A virus; details: Influenza A virus, H1N1, MDCK, 96 h, read-out: Virus neutralization assay (VNA), pEC50 H1N1 A/New Caledonia/20/99 (converted)
Kindly state EC50 for each of the entries shown.
Give bare numbers, in nM.

// known answers, use as guide
Cc1nnc(C(c2ccccc2)N2CCN(C(=O)c3ccnc(-c4nc5cc(C(F)(F)F)ccc5o4)c3)CC2)o1 (stereo not drawn)    1000
COC(=O)C(c1ccncc1)N1CCN(C(=O)c2cccc(-c3nc4ccc(OC)cc4s3)c2)CC1 (stereo not drawn)    1580
COC(=O)C(c1ccccc1)N1C[C@H]2CC[C@@H](C1)N2C(=O)c1cccc(-c2nc3ccc(OC)cc3s2)c1 (stereo partly drawn)    794
Cc1nnc(C(c2ccccc2)N2CCN(C(=O)c3cccc(-c4nc5ccncc5o4)c3)CC2)o1 (stereo not drawn)    1000
COC(=O)[C@@H](c1ccccc1)N1CCN(C(=O)c2cccc(-c3nc4cc(C(F)(F)F)ccc4o3)c2)CC1    158
Cc1nnc(C(c2ccccc2)N2CCN(C(=O)c3cc(-c4nc5cc(OC(F)(F)F)ccc5o4)ccn3)CC2)o1 (stereo not drawn)    158
Cc1nnc(C(c2ccccc2)N2CCN(C(=O)c3cccc(-c4nc5cc(N(C)C)ccc5o4)c3)CC2)o1 (stereo not drawn)    158
COC(=O)C(c1ccccc1)N1CCN(C(=O)c2cccc(-c3nc4cc(Cl)ccc4o3)c2)CC1 (stereo not drawn)    501

List EC50 for every entry below, keeping the order given.
1. COC(=O)C(c1ccccc1)N1CCN(C(=O)c2cccc(-c3nc4ccc(OC)cc4[nH]3)c2)CC1 (stereo not drawn)
2. Cc1cnc(C(c2ccccc2)N2CCN(C(=O)c3cc(-c4nc5cc(OC(F)(F)F)ccc5o4)ccn3)CC2)o1 (stereo not drawn)

## Result
1. 1580
2. 100

List EC50 for every entry below, keeping the order given.
1. COC(=O)C(c1ccccc1)N1CCN(C(=O)c2ccc(-c3nc4ccc(OC)cc4s3)o2)CC1 (stereo not drawn)
2. COC(=O)C(c1ccccc1)N1CCN(C(=O)c2cccc(-c3nc4cc(OC5CC5)ccc4o3)c2)CC1 (stereo not drawn)
3. COC(=O)[C@@H](c1ccccc1)N1CCN(C(=O)c2cccc(-c3nc4cc(C(F)(F)F)ccc4o3)c2)[C@H](C(N)=O)C1
4. Cn1ccc(C(c2ccccc2)N2CCN(C(=O)c3cccc(-c4nc5cc(C(F)(F)F)ccc5o4)c3)CC2)n1 (stereo not drawn)
5. O=C(c1cccc(-c2cc3ccccc3o2)c1)N1CCN(Cc2ccccc2)CC1

## Result
1: 631; 2: 2.51; 3: 1580; 4: 398; 5: 631

###

tested on: H1N1 A/New Caledonia/20/99; experiment: microbe, parasite or virus in culture; type: cell-based, influenza A virus; settings: Influenza A virus, H1N1, MDCK, 96 h, read-out: Virus neutralization assay (VNA), pEC50 H1N1 A/New Caledonia/20/99 (converted)
PARAMETER MEASURED: EC50

Cc1nnc([C@@H](c2ccccc2)N2CCN(C(=O)c3cccc(-c4nc5cc(C(F)(F)F)ccc5o4)c3)CC2)o1    316 nM
Cc1nnc(C(c2ccccc2)N2CCN(C(=O)c3cc(-c4nc5ccccc5s4)ccc3F)CC2)o1 (stereo not drawn)    316 nM
CCCNC(=O)C(c1ccccc1)N1CCN(C(=O)c2cccc(-c3nc4ccc(OC)cc4s3)c2)CC1 (stereo not drawn)    1000 nM
Cc1nnc([C@@H](c2ccccc2)N2CCN(C(=O)c3cccc(-c4ncc5ccccc5n4)c3)CC2)o1    200 nM
CCc1nnc(C(c2ccccc2)N2CCN(C(=O)c3cccc(-c4nc5cc(C(F)(F)F)ccc5o4)c3)CC2)o1 (stereo not drawn)    1260 nM

List EC50 for every entry below, keeping the order given.
1. Cc1nnc([C@@H](c2ccccc2)N2CCN(C(=O)c3cc(-c4nc5cc(OC(F)(F)F)ccc5o4)ccn3)CC2)o1
2. O=C(c1cccc(-c2nc3cc(C(F)(F)F)ccc3o2)c1)N1CCN(C(c2ccccc2)c2nnco2)CC1 (stereo not drawn)
3. COC(=O)C(c1ccccc1)C1CCN(C(=O)c2cccc(-c3nc4ccc(OC)cc4s3)c2)CC1 (stereo not drawn)
4. COC(=O)C(c1ccccc1)N1CCN(C(=O)c2cccc(-c3nc4cc(N)ccc4o3)c2)CC1 (stereo not drawn)
5. CC(=O)Nc1ccc2oc(-c3cccc(C(=O)N4CCN(C(c5ccccc5)c5nnc(C)o5)CC4)c3)nc2c1 (stereo not drawn)

## Result
1: 39.8 nM; 2: 1000 nM; 3: 1000 nM; 4: 50.1 nM; 5: 251 nM

List EC50 for every entry below, keeping the order given.
1. Cc1nc(C(c2ccccc2)N2CCN(C(=O)c3cccc(-c4nc5cc(C(F)(F)F)ccc5o4)c3)CC2)n[nH]1 (stereo not drawn)
2. Cc1nnc(C(c2ccccc2)N2CCN(C(=O)c3cc(-c4nc5cc(OC(F)(F)F)ccc5o4)ccn3)CC2)s1 (stereo not drawn)
3. Cc1nnc(C(c2ccccc2)N2CCN(C(=O)c3cccc(-c4nc5cc(NS(C)(=O)=O)ccc5o4)c3)CC2)o1 (stereo not drawn)
4. COC(=O)C(c1ccccc1)N1CCN(C(=O)c2cccc(-c3nc4cc(OC(F)(F)F)ccc4o3)c2)CC1 (stereo not drawn)
5. COC(=O)C(c1ccccc1)N1CCN(C(=O)c2cccc(-c3nc4ccc(OC)cc4s3)c2)CC1 (stereo not drawn)

## Result
1580 nM
316 nM
794 nM
126 nM
158 nM

###

test: in vitro; details: dog, Cytotoxicity (pCC50) MDCK
Note to self: use t only for CC50 readings below 20 µM; a reading exactly at 20 µM still gets f.

Field: example entries. Status: answers known.
COc1nnc([C@@H](c2ccccc2)N2CCN(C(=O)c3cc(-c4nc5cc(OC(F)(F)F)ccc5o4)ccn3)CC2)o1    f
COC(=O)C(c1ccccc1)N1CCN(C(=O)c2ccc(-c3nc4ccc(OC)cc4s3)o2)CC1 (stereo not drawn)    f
COC(=O)[C@H](c1ccccc1)N1CCN(C(=O)c2cccc(-c3nc4cc(C(F)(F)F)ccc4o3)c2)[C@@H](C(N)=O)C1    f
CCCNC(=O)C(c1ccccc1)N1CCN(C(=O)c2cccc(-c3nc4ccc(OC)cc4s3)c2)CC1 (stereo not drawn)    t
COc1ccc2nc(-c3cccc(C(=O)N4CCN([C@@H](c5ccccc5)c5nnc(C)o5)CC4)c3)sc2c1    t
COc1ccc2nc(-c3cccc(C(=O)N4CCN(C(C(C)=O)c5ccccc5)CC4)c3)sc2c1 (stereo not drawn)    f
COC(=O)C(c1ccccc1)N1CCN(C(=O)c2cncc(-c3nc4ccc(OC)cc4s3)c2)CC1 (stereo not drawn)    f
Cc1nc(C(c2ccccc2)N2CCN(C(=O)c3cccc(-c4nc5cc(C(F)(F)F)ccc5o4)c3)CC2)n[nH]1 (stereo not drawn)    f

## Task Determine whether this compound shows CC50 lower than 20 µM (ties excluded): COC(=O)[C@@H](c1ccccc1)N1CCN(C(=O)c2cccc(-c3nc4cc(C(F)(F)F)ccc4o3)c2)[C@H](C)C1
## Result f

## Task Determine whether this compound shows CC50 lower than 20 µM (ties excluded): COC(=O)C(c1ccccc1)N1CCN(C(=O)c2ccnc(-c3nc4cc(C(F)(F)F)ccc4o3)c2)CC1 (stereo not drawn)
## Result t

## Task Determine whether this compound shows CC50 lower than 20 µM (ties excluded): [2H]C([2H])([2H])c1nnc(C(c2ccccc2)N2CCN(C(=O)c3cccc(-c4nc5cc(C(F)(F)F)ccc5o4)c3)CC2)o1 (stereo not drawn)
## Result f

## Task Determine whether this compound shows CC50 lower than 20 µM (ties excluded): Cc1nnc(C(c2ccccc2)N2CCN(C(=O)c3cccc(-c4nc5ccncc5o4)c3)CC2)o1 (stereo not drawn)
## Result f

## Task Determine whether this compound shows CC50 lower than 20 µM (ties excluded): NCc1nnc(C(c2ccccc2)N2CCN(C(=O)c3cccc(-c4nc5cc(C(F)(F)F)ccc5o4)c3)CC2)o1 (stereo not drawn)
## Result t

## Task Determine whether this compound shows CC50 lower than 20 µM (ties excluded): COC(=O)C(c1ccccc1)N1CCCN(C(=O)c2cccc(-c3nc4ccc(OC)cc4s3)c2)CC1 (stereo not drawn)
## Result f

These data points were gathered from patent US11040963B2.
